# system under test: Carbonic anhydrase 2 (Homo sapiens) (UniProt P00918)
# procedure summary: CAII small-molecule binders, profiling panel, biochemical, small-molecule microarray, Alexa647-labelled CAII (AID 1122)
# condition details: CAII-A647 binding fluorescence, higher = more signal
Would you please tag the item t when its composite z-score is 0.7 or above, and f when it is below?

compound | class assignment
COC(=O)[C@@]1(Cc2ccc(OC)cc2)[C@H]2c3cc(C(=O)N4CCCC4)n(CCN4CNCC4=O)c3C[C@H]2CN1C(=O)c1ccccc1 | f
CC(C)N1C(=O)C[C@@](C(=O)NCC(F)(F)F)(c2ccc([N+](=O)[O-])cc2)[C@H]1c1ccc(CO)cc1 | f
C=CCOC(=O)[C@H]1[C@@H]2C(=O)O[C@@H](c3ccccc3)[C@@H](c3ccccc3)N2[C@@H](c2ccc(OCCOC(=O)[C@@H]3C[C@@H]4C(=O)N[C@@H](CC(C)C)C(=O)N4[C@@H]3c3ccc(O)cc3)cc2)[C@]12C(=O)Nc1ccccc12 | f

Proceed to the following item.
Asked: Please check the record O=C1C2C=CC(C(O)c3cccc4ccccc34)N(Nc3ccccc3F)C2C(=O)N1c1ccccc1 (stereo not given) and state if its composite z-score is at or above 0.7.
Given back: t
